study target: UniProt:O70536
method description: Percent change in plasma total cholesterol in an acute cholesterol-fed rat model of hypercholesterolemia, dose at 30 mg/kg
Format: functional, organism-based
Design: dose 30 mg/kg
Measured Delta TC accompanies every entry in the list below.
recorded endpoint: Delta TC (%)

| chemical string | recorded endpoint | test value |
| --- | --- | --- |
| CCCCCCCCCCN1NN=C(NC(=O)Nc2c(C(C)C)cccc2C(C)C)N1 | Delta TC | -62 |
| CCCCCCCCCCCCCc1cc(NC(=O)Nc2c(C(C)C)cccc2C(C)C)on1 | Delta TC | -62 |
| CCCCCCCCCCCCN1NN=C(CNC(=O)Nc2c(OC)cc(OC)cc2OC)N1 | Delta TC | -40 |
| CCCCCCCCCCCCCSc1nnc(NC(=O)Nc2c(C(C)C)cccc2C(C)C)n1C(C)=O | Delta TC | -21 |
| CCCCCCCCCCCCCc1nnc(NC(=O)Nc2c(C(C)C)cccc2C(C)C)o1 | Delta TC | -62 |
| CCCCCCCCCN1NN=C(NC(=O)Nc2c(C(C)C)cccc2C(C)C)N1 | Delta TC | -65 |
| CCCCCCCCCCCCN1NN=C(NC(=O)Nc2c(OC)cc(OC)cc2OC)N1 | Delta TC | -75 |
| CCCCCCCCCCCN1NN=C(NC(=O)Nc2c(C(C)C)cccc2C(C)C)N1 | Delta TC | -70 |
| CCCCCCN1NN=C(NC(=O)Nc2c(C(C)C)cccc2C(C)C)N1 | Delta TC | -59 |
| CCCCCCCCCCCCCCN1NN=C(NC(=O)Nc2c(C(C)C)cccc2C(C)C)N1 | Delta TC | -65 |

* * *

study target: Sterol O-acyltransferase 1 (Rattus norvegicus) (UniProt O70536)
Sequence (whole entry): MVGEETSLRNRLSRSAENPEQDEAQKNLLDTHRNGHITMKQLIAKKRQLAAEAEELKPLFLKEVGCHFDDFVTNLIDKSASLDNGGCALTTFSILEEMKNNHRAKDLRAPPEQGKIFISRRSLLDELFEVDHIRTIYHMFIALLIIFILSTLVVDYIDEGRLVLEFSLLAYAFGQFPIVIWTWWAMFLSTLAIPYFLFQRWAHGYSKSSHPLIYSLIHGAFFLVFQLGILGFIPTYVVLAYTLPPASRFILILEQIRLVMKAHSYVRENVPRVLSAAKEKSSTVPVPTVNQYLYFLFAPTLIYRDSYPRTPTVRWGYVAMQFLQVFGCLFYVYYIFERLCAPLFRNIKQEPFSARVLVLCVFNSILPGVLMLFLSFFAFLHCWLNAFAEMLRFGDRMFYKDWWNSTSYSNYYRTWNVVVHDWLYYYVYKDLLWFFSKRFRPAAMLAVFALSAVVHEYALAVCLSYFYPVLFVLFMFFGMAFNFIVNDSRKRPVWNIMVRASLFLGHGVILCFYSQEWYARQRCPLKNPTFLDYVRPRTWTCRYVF
method description: Percent change in plasma TC in the chronic C-fed rat model of pre-established hypercholesterolemia. Dose at 30 mg/kg
Assay type: functional, organism-based
Design: dose 30 mg/kg
Think of -50% as a floor: if Delta TC stands on it or above, it is T; beneath it, F.

| chemical string | study target | category label |
| --- | --- | --- |
| CCCCCCCCCCCCCCc1cc(NC(=O)Nc2c(C(C)C)cccc2C(C)C)on1 | Sterol O-acyltransferase 1 (Rattus norvegicus) (UniProt O70536) | T |
| CCCCCCCCCCCCCCN1NN=C(NC(=O)Nc2c(C(C)C)cccc2C(C)C)N1 | Sterol O-acyltransferase 1 (Rattus norvegicus) (UniProt O70536) | F |
| CCCCCCCCCCCCCc1cc(NC(=O)Nc2c(C(C)C)cccc2C(C)C)on1 | Sterol O-acyltransferase 1 (Rattus norvegicus) (UniProt O70536) | F |
| CCCCCCCCCCCCCN1NN=C(NC(=O)Nc2c(C(C)C)cccc2C(C)C)N1 | Sterol O-acyltransferase 1 (Rattus norvegicus) (UniProt O70536) | F |
| CCCCCCCCCCCCc1cc(NC(=O)Nc2c(C(C)C)cccc2C(C)C)on1 | Sterol O-acyltransferase 1 (Rattus norvegicus) (UniProt O70536) | F |

* * *

study target: Sterol O-acyltransferase 1 (Rattus norvegicus) (UniProt O70536)
method description: Percent change in plasma total cholesterol in an acute cholesterol-fed rat model of hypercholesterolemia, dose at 30 mg/kg
Type: functional, organism-based
Set-up: dose 30 mg/kg
Measured Delta TC accompanies every entry in the list below.
recorded endpoint: Delta TC (%)

| compound | study target | recorded endpoint | test value |
| --- | --- | --- | --- |
| CCCCCCCCCCCCCCc1cc(NC(=O)Nc2c(C(C)C)cccc2C(C)C)on1 | Sterol O-acyltransferase 1 (Rattus norvegicus) (UniProt O70536) | Delta TC | -64 |
| CC(C)c1cccc(C(C)C)c1NC(=O)Nc1nnn(CCCCCCCCCCCO)n1 | Sterol O-acyltransferase 1 (Rattus norvegicus) (UniProt O70536) | Delta TC | -28 |
| CCCCCCCCCCCCCCCCN1NN=C(NC(=O)Nc2c(C(C)C)cccc2C(C)C)N1 | Sterol O-acyltransferase 1 (Rattus norvegicus) (UniProt O70536) | Delta TC | -67 |
| CCCCCCCCCCCc1nnc(NC(=O)Nc2c(C(C)C)cccc2C(C)C)s1 | Sterol O-acyltransferase 1 (Rattus norvegicus) (UniProt O70536) | Delta TC | -61 |
| CCCCCCCCCCCc1csc(NC(=O)Nc2c(C(C)C)cccc2C(C)C)n1 | Sterol O-acyltransferase 1 (Rattus norvegicus) (UniProt O70536) | Delta TC | -29 |
| CCCCCCCCCCCCN1NN=C(NC(=O)Nc2c(C(C)C)cccc2C(C)C)N1 | Sterol O-acyltransferase 1 (Rattus norvegicus) (UniProt O70536) | Delta TC | -67 |
| CCCCCCCCCCCCCc1nnc(NC(=O)Nc2c(C(C)C)cccc2C(C)C)s1 | Sterol O-acyltransferase 1 (Rattus norvegicus) (UniProt O70536) | Delta TC | -46 |
| CCCCCCCCCCCCCN1NN=C(NC(=O)Nc2c(C(C)C)cccc2C(C)C)N1 | Sterol O-acyltransferase 1 (Rattus norvegicus) (UniProt O70536) | Delta TC | -67 |
| CC(C)c1cccc(C(C)C)c1NC(=O)Nc1nn[nH]n1 | Sterol O-acyltransferase 1 (Rattus norvegicus) (UniProt O70536) | Delta TC | -19 |
| CCCCCCCCCCCCn1cnc(NC(=O)Nc2c(C(C)C)cccc2C(C)C)n1 | Sterol O-acyltransferase 1 (Rattus norvegicus) (UniProt O70536) | Delta TC | -30 |
| CCCCCCCCCCCCCS(=O)(=O)c1n[nH]c(NC(=O)Nc2c(C(C)C)cccc2C(C)C)n1 | Sterol O-acyltransferase 1 (Rattus norvegicus) (UniProt O70536) | Delta TC | -11 |
| CCCCCCCCCc1nnc(NC(=O)Nc2c(C(C)C)cccc2C(C)C)s1 | Sterol O-acyltransferase 1 (Rattus norvegicus) (UniProt O70536) | Delta TC | -39 |
| CCCCCCCCCCn1nnnc1NC(=O)Nc1c(C(C)C)cccc1C(C)C | Sterol O-acyltransferase 1 (Rattus norvegicus) (UniProt O70536) | Delta TC | -65 |
| CC(C)c1cccc(C(C)C)c1NC(=O)Nc1nnn(CCCCCCCCCCCOC2CCCCO2)n1 (stereo unspecified) | Sterol O-acyltransferase 1 (Rattus norvegicus) (UniProt O70536) | Delta TC | -53 |
| CCCCCCCCCCCCn1cnnc1NC(=O)Nc1c(C(C)C)cccc1C(C)C | Sterol O-acyltransferase 1 (Rattus norvegicus) (UniProt O70536) | Delta TC | -28 |
| CCCCCCCCCCCCCSc1n[nH]c(NC(=O)Nc2c(C(C)C)cccc2C(C)C)n1 | Sterol O-acyltransferase 1 (Rattus norvegicus) (UniProt O70536) | Delta TC | 12 |
| CC(C)c1cccc(C(C)C)c1NC(=O)NC1=NN(Cc2ccccc2)NN1 | Sterol O-acyltransferase 1 (Rattus norvegicus) (UniProt O70536) | Delta TC | -27 |
| CCCCCCCCCCCCn1ncnc1NC(=O)Nc1c(C(C)C)cccc1C(C)C | Sterol O-acyltransferase 1 (Rattus norvegicus) (UniProt O70536) | Delta TC | -36 |
| CCCCCCCCN1NN=C(NC(=O)Nc2c(C(C)C)cccc2C(C)C)N1 | Sterol O-acyltransferase 1 (Rattus norvegicus) (UniProt O70536) | Delta TC | -67 |
| CCCCCCCCCCCCn1nnnc1NC(=O)Nc1c(C(C)C)cccc1C(C)C | Sterol O-acyltransferase 1 (Rattus norvegicus) (UniProt O70536) | Delta TC | -57 |
| COC(=O)CCCCCCCCCCN1NN=C(NC(=O)Nc2c(C(C)C)cccc2C(C)C)N1 | Sterol O-acyltransferase 1 (Rattus norvegicus) (UniProt O70536) | Delta TC | -23 |

* * *

study target: Sterol O-acyltransferase 1 (Rattus norvegicus)
Sequence (whole entry): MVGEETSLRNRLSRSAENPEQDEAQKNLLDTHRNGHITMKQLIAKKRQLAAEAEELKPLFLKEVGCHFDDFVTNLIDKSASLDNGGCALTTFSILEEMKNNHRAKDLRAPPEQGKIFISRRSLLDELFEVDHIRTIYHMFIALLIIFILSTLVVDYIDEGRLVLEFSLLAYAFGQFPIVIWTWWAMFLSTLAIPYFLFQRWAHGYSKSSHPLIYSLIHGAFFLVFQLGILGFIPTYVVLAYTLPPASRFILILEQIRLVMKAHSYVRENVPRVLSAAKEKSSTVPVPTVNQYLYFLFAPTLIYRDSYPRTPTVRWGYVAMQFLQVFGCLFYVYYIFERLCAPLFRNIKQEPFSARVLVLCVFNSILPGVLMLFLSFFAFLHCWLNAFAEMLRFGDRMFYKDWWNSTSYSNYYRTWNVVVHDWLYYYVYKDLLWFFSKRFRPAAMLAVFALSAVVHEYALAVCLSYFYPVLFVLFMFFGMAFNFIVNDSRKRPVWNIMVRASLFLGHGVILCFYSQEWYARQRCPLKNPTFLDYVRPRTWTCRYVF
method description: Percent change in plasma total cholesterol in an acute cholesterol-fed rat model of hypercholesterolemia, dose at 30 mg/kg
Format: functional, organism-based
Set-up: dose 30 mg/kg
Measured Delta TC accompanies every entry in the list below.

| chemical string | Delta TC [%] |
| --- | --- |
| CCCCCCCCCCCCc1n[nH]c(NC(=O)Nc2c(C(C)C)cccc2C(C)C)n1 | 12 |
| CC(C)=CCC/C(C)=C/Cn1nnc(NC(=O)Nc2c(C(C)C)cccc2C(C)C)n1 | -27 |
| CCCCCCCCCCCCc1coc(NC(=O)Nc2c(C(C)C)cccc2C(C)C)n1 | -55 |
| CCCCCCCCCCCCCc1cc(NC(=O)Nc2c(C(C)C)cccc2C(C)C)no1 | -62 |

These data points were gathered from ChEMBL document CHEMBL1129379.
